Tested on: MOLM14(D835Y) cells
Assay type: cell-based
experimental context: MOLM14(D835Y) cells, 10 × 10; combination with AZD-5363
// reported Excess HSA Score for each item listed
Form: value (number only, do not type unit).

Study these solved cases before continuing.
compound: F[C@H]1CCNC[C@@H]1Nc1cncc(-c2cnc3cc(OC4CC4)ccn23)n1 [Compound 12]
Excess HSA Score: −869.6
//
compound: COc1cc2ncc(-c3ccnc(N[C@@H]4CCCNC4)n3)n2nc1C1CC1 [Compound 50]
Excess HSA Score: 12.5
//
compound: CC(O)(c1cn2c(-c3ccnc(N[C@H]4CNCC[C@@H]4F)n3)cnc2cn1)C(F)(F)F (single isomer, unassigned) [Compound 72]
Excess HSA Score: −687.9
//
compound: FC(F)COc1ccn2c(-c3ccnc(N[C@H]4CNCC[C@@H]4F)n3)cnc2c1 [Compound 33]
Excess HSA Score: 320.5

Please list Excess HSA Score recorded for the compound COc1cc2ncc(-c3cncc(N[C@H]4CNCC[C@@H]4F)n3)n2nc1C1CC1 [Compound 24] −1011

Please list Excess HSA Score recorded for the compound COc1cc2ncc(-c3ccnc(N[C@@H]4CCCNC4)n3)n2cc1C(C)(C)O [Compound 44] −290.5

Please list Excess HSA Score recorded for the compound COc1ccn2c(-c3cncc(N[C@@H]4CCCNC4)n3)cnc2c1 [Compound 5] −297.4

Please list Excess HSA Score recorded for the compound COc1cc2ncc(-c3ccnc(N[C@H]4CNCC[C@@H]4F)n3)n2cc1C(C)(C)O [Compound 45] 384.6

Please list Excess HSA Score recorded for the compound COc1ccn2c(-c3ccnc(N[C@H]4CNC[C@@H]4F)n3)cnc2c1 [Compound 28] −377.1
